Values were extracted from patent US20250388666A1.

Kd overview
- target.or.system: T1, CEACAM1 (Sino Biological) (human, UniProt P13688 35-428, limits assumed)
- T1 construct: may be the same as CEACAM1-HIS; also called hCEACAM1; biotinylated soluble CEACAM1
- T1 sequence: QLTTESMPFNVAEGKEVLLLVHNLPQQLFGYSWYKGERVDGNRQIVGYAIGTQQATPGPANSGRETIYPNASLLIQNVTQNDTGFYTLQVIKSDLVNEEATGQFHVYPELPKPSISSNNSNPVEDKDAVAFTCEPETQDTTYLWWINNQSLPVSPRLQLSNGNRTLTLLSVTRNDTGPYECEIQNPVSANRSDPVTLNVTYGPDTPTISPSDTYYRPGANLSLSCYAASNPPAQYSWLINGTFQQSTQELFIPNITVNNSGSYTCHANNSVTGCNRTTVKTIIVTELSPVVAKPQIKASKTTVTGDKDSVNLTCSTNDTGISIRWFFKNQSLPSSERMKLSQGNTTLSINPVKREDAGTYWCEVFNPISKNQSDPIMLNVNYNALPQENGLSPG
- experiment: SPR single-cycle
property.name: Kd (nM)

INSERT INTO assay_data (binder, property_name, unit_of_measure, value_observed) VALUES
  ('He1/L1 (antibody, IgG4, V domains shown, IgG4 S241P, kappa) VH: EVQLLESGGGLVQPGGSLRLSCAASGFSFSDYYLYWVRQAPGKGLEWVATISVGGGQTSYADSVKGRFTISRDNSKNTLYLQMNSLRAEDTAMYYCTRGLYYGPSWFAYWGQGTLVTVSS VL: DIVMTQSPDSLAVSLGERATINCKSSQSLLNSANQKNYLAWYQQKPGQPPKLLIYFASTRESGVPDRFSGSGSGTDFTLTISSLQAEDVAVYYCQSHYPFYYTFGGGTKVEIK', 'Kd', 'nM', 568),
  ('He14/L6 (antibody, IgG4, V domains shown, IgG4 S241P, kappa) VH: EVQLLESGGGLVQPGGSLRLSCAASGFSFSDYYLYWVRQAPGKGLEWVATISVGGGQTSYADSVKGRFTISRDNSKNTLYLQMNSLRAEDTAMYYCTRGLYYGPSWVAYWGQGTLVTVSS VL: DIVMTQSPDSLAVSLGERATINCKSSQSLLNSANQKNYLAWYQQKPGQPPKLLIYFASTRESGVPDRFSGSGSGTDFTLTISSLQAEDVAVYYCQSHYPFSFTFGGGTKVEIK', 'Kd', 'nM', 111),
  ('Parent VH/L17 (antibody, IgG4, V domains shown, IgG4 S241P, kappa) VH: EVQLLESGGGLVQPGGSLRLSCAASGFSFSDYYLYWVRQAPGKGLEWVATISVGGGQTSYADSVKGRFTISRDNSKNTLYLQMNSLRAEDTAMYYCTRGLYYGPAWFAYWGQGTLVTVSS VL: DIVMTQSPDSLAVSLGERATINCKSSQSLLNSANQKNYLAWYQQKPGQPPKLLIYFASTRESGVPDRFSGSGSGTDFTLTISSLQAEDVAVYYCQSHYPYPYTFGGGTKVEIK', 'Kd', 'nM', 76);
